Tested on: K4 kissing-loop RNA reporter
Method Summary: apparent KD of K4 kissing-loop reporter; higher = weaker reporter binding
Applied Conditions: Eterna round: R107; input ligand: none
I'd appreciate it if you could supply apparent KD of K4 kissing-loop reporter values for the items below.
Give just the number in nM; leave the unit off.

Reported apparent KD of K4 kissing-loop reporter for AUUCUUUUUUUGAUGUUUUUUGUAUAAUGGCAGGAUAUCGUAGAAGCGAGAAGGGCUUUUAUGCGUUAUGAGUGAUGUUUGUAGG [szeewvmullin] : what is it?
261

Reported apparent KD of K4 kissing-loop reporter for GAUGGUGGCAGUGAAGUGAUGUUUCAUGAUACCAGUUUUAUAAGUAACCCUUGGCAGCAUCGUACGCAGCGUAGUGGACAUCACG [theeternabot_exclusion_KL_Theo_A_25] : what is it?
140

Reported apparent KD of K4 kissing-loop reporter for GUGAAGGAGCUGCAGUGAUGUUGCAGAAACUAGGAUAUCAGGAAACUGAGAAGGAGUCAACUCCUUCACCUAAAUACUGCAGAAA [KL-SSFMN-A23] : what is it?
158

Reported apparent KD of K4 kissing-loop reporter for GAGGAUUGAACGGCCGCCACUGCGCGCAGCUGCAAUCGAGUGAUGUUCCAUCAGUUGUCCAGUUCCAGGACCGGGUUCCGAUGCC [theeternabot_exclusion_KL_Trp_B_12] : what is it?
401

Reported apparent KD of K4 kissing-loop reporter for AGUGAUGUGGGAAGGAGCGGUAUAUGAGUUCAGUGAUGUUGAAGUGAUGCUGUAGUGAUGUGCCAGGUAGGUCGCCUAGAUGUUA [whbob_Ex_Arginine_B_2th165] : what is it?
395

Reported apparent KD of K4 kissing-loop reporter for UUGUUUGGUUGAGAGGUUGGGCGAGAUGAUACCAGUAUAGUAUAGUACCCUUGGCAGCAUAGGAGAGAUAUAGUGAUGUUGUAUG [SSTheophA.V] : what is it?
493

----------
I'd appreciate it if you could supply apparent KD of MS2 coat protein values for the items below.
Test system: MS2 coat protein
Method Summary: apparent KD of MS2 coat protein; higher = weaker reporter binding
Applied Conditions: Eterna round: R107; input ligand: none
Give just the number in nM; leave the unit off.

Reported apparent KD of MS2 coat protein for AAAUAUAACUCGGCCGCCACUGACAUGAGGAUCACCCAUGUUAUAUUUUAUACAUGAGGAUCACCCAGGACCGGGAGAAUAUAAA [Jonah 1] : what is it?
940

Reported apparent KD of MS2 coat protein for GGCCCUGCGAGCGCUCGCAGGGCCGCGGAUACCAGCGAGGUCCAUCGCCCUUGGCAGCCGAACAUGAGGAUCACCCAUGUCGGUC [#1 Same State - Theophylline A Attempt #11 (HarryS)] : what is it?
11.6

Reported apparent KD of MS2 coat protein for AUACGUAACAGAAGGAGCGCACCGACAUGAGGAUCACCCAUGUGGGAUGGGACUCUUUUGGUGCAGGUAGGUCGCUGUCACGCAU [Beatattian] : what is it?
41.4

----------
System: MS2 coat protein
Method Summary: apparent KD of MS2 coat protein; designed switch direction (-1 OFF switch, 1 ON switch): -1; higher = weaker reporter binding
Applied Conditions: input ligand: none
Label Satisfied when apparent KD of MS2 coat protein is at or above 0.1 µM; otherwise label Not satisfied.

Does apparent KD of MS2 coat protein meet or surpass 0.1 µM for AAAUUAGCAAGUAGGUCCGACAUGAGGAUCACCCAUGUAAUCUAAUAUUACGCUGCAUGAGAGUGCGCUCGUCUUAG [Sensor-V1 #17] (Eterna round: R97, puzzle: Sensor, turn-off variant 1) ?
Satisfied

Does apparent KD of MS2 coat protein meet or surpass 0.1 µM for CCCACAGGCUUUUUGCUCGACAUGAGGAUCACCCAUGUUGAAUGGGUUGUGUGUGUGUGAUACAUAUAUAUGGUCCU [-25.5, -50.5 kcal, A 21%] (Eterna round: R97, puzzle: Sensor, turn-off variant 1) ?
Satisfied

Does apparent KD of MS2 coat protein meet or surpass 0.1 µM for GGGUGUGCUAAGGAUAUCGGACCAUCGGGUAACUGAGAAGGUAGCACAUGAGGAUCACCCAUGUGUAACUUGAU [EX6 B.12] (Eterna round: R97, puzzle: Exclusion 6) ?
Not satisfied

Does apparent KD of MS2 coat protein meet or surpass 0.1 µM for ACAAGCUCUGUGGGUGGUGACAUGAGGAUCACCCAUGUUUUGCUCGUCUUGUGCCGGGCCCGGCGCCCGGGCCCGGC [-40.5, -69.4, A 8%] (Eterna round: R97, puzzle: Sensor, turn-off variant 1) ?
Satisfied

Does apparent KD of MS2 coat protein meet or surpass 0.1 µM for AGUCAGGCGGUAGGAUAUCCAAACCGAGUGACCCUUACAUAACAUGAGGAUCACCCAUGUCGGUGGGAGAAGGGCCGUAAGGCA [Mat - Exclusion NG 2 - Mod of JL - D67] (Eterna round: R96, puzzle: Exclusion NG 2) ?
Satisfied

----------
Test system: MS2 coat protein
Method Summary: apparent KD of MS2 coat protein; designed switch direction (-1 OFF switch, 1 ON switch): 1; higher = weaker reporter binding
Applied Conditions: input ligand: FMN 200 uM
Label T when apparent KD of MS2 coat protein is at or above 90 nM; otherwise label F.

Does apparent KD of MS2 coat protein meet or surpass 90 nM for CUGAGCAAUCGAGGAUAUCACGUCGAUUAGACGUGAGAAGGCGAUCAUAACAUGAGGAUCACCCAUGUAUUACAUGAAGCUCAG [SSNG1/4-A2] (Eterna round: R96, puzzle: Same State NG 1) ?
F

Does apparent KD of MS2 coat protein meet or surpass 90 nM for UGGUACAUGGGAGGAUAUGGGCAAGAGACAUGAGGAUCACCCAUGUUAUAAAAGCCGAGAGGCAUCUAGAAGGCCCAUGUACCU [JL SSNG1 3.90] (Eterna round: R96, puzzle: Same State NG 2) ?
F

Does apparent KD of MS2 coat protein meet or surpass 90 nM for ACAUGAAAUUCAGGAUAUUUUGUACCUACAUGUGACAUGAGGAUCACCCAUGUGGUAAGUAUAAGAGAGAAGGGAAAGAUAUGU [Equivalence 5 - Jieux - Same State NG 2] (Eterna round: R96, puzzle: Same State NG 2) ?
F

Does apparent KD of MS2 coat protein meet or surpass 90 nM for UAGGGACAUGAGGAUCACCCAUGUGCCUCAUAUGGAGAAACUCAGGAUAUGCUGAGGAUCACCCGGCAGAAGGGAGAUCCGAGG (Eterna round: R96, puzzle: Same State NG 3) ?
F

Does apparent KD of MS2 coat protein meet or surpass 90 nM for AAAGGAUGAUUAUACAUGAGGAUCACCCAUGUAAGUUAUACUAAGGAUAUGUGACUUAAUAGUUUACAGAAGGUAGGUUCAUGA [AK SSNG3-V2-2] (Eterna round: R96, puzzle: Same State NG 3) ?
F

Does apparent KD of MS2 coat protein meet or surpass 90 nM for UGCCUGUCCGAAGGAUAUCUCAGCGAUCUUUUGGGAGAAGGUCGGAUGCAACAUGAGGAUCACCCAUGUGUAUAUAUCGCUGAC [Eternabot solution 48] (Eterna round: R96, puzzle: Same State NG 1) ?
F

Does apparent KD of MS2 coat protein meet or surpass 90 nM for GAGUAGUUGGGAGGAUAUGCAUUGUUAUUAAAUGCAGAAGGUUUUAACAUGAGGAUCACCCAUGUAGGACUAUUCCUGUGUAUC [Parity 70 - Jieux - Same State NG 1] (Eterna round: R96, puzzle: Same State NG 1) ?
F

Does apparent KD of MS2 coat protein meet or surpass 90 nM for UGAAUAGUUACAGGAUAUGAUCCGAAAAUUGGGUCAGAAGGGUGGGUGUUGUGCGCUAUGUGCUACAUGAGGAUCACCCAUGUU [SameState NG1 #36] (Eterna round: R96, puzzle: Same State NG 1) ?
T

Does apparent KD of MS2 coat protein meet or surpass 90 nM for UUAAUGAUGUAAGGAUAUACAUGAGGAUUUCUCGUAGAAGGUACAAGACAUGAGGAUCACCCAUGUAUCGCUCCGUAGAGCGUA [JL SSNG1 1.10] (Eterna round: R96, puzzle: Same State NG 1) ?
T

----------
I'd appreciate it if you could supply apparent KD of K4 kissing-loop reporter values for the items below.
Tested on: K4 kissing-loop RNA reporter
Method Summary: apparent KD of K4 kissing-loop reporter; higher = weaker reporter binding
Applied Conditions: Eterna round: R107; input ligand: theophylline 20 uM
Give just the number in nM; leave the unit off.

Param readout = apparent KD of K4 kissing-loop reporter; param system = K4 kissing-loop RNA reporter; param query = GGGAGGAAAAUUUUCCUCAAAAGUUGGCUACAGGAUAUCGUGGGAAUGAGAAGGGUAACCGAGACGCCCAGUGAUGUUGGGUGCC [Antegete] ; response: value
251

Param readout = apparent KD of K4 kissing-loop reporter; param system = K4 kissing-loop RNA reporter; param query = AACGCUUGAAUAACAAGCGAAAUAAAUUCGCGAGGACCGGUACGGCCGCCACUCGCUAACUGCGAGUGAUGUUCGAUAAUAAAAU [Mat - Mod of OpenEnded 3 - D15] ; response: value
234

Param readout = apparent KD of K4 kissing-loop reporter; param system = K4 kissing-loop RNA reporter; param query = UCCUGCACGGUCGAUACCAGCCUAUGCAGUGAUGUUGUAAGGUUGUCACUUUAGUACGAAGGCCCUUGGCAGCGAUGAUGUAACA [theeternabot_exclusion_KL_Theo_B_41] ; response: value
504

Param readout = apparent KD of K4 kissing-loop reporter; param system = K4 kissing-loop RNA reporter; param query = AGCGAGUGAUGUUCGCUGAUCAUGAGAAGUUAGGAUAUAUACUUGCAUAGAAGGAACUAUUUCAUGACAUUAGAGGCAGUAGUUC [FMN A SS t7] ; response: value
152

Param readout = apparent KD of K4 kissing-loop reporter; param system = K4 kissing-loop RNA reporter; param query = AGGCACGAGCAAGGAUAUCGAGUAGAGUGAUGUUCUGCCUGGGUUGGCCCGAAAGGGCCUUCCCAGCGAGAAGGUGCUCGUGCCU [#2 Same State - FMN A Attempt #9 (HarryS)] ; response: value
492

Param readout = apparent KD of K4 kissing-loop reporter; param system = K4 kissing-loop RNA reporter; param query = UAGCGGUAGAGGCCACCGCUAUUCUGAGAAGGAGCGCAGAUGACUGCAGGUAGGUCGCUUAGAGCUUGCAGUGAUGUUGCAAGUU [Tebete] ; response: value;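 also: bound reporter read as fluorescence of individual clusters on recovered sequencing chips by microscopy, with normalized cluster intensities fitted with a binding model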
145
